Hello, the source for this data is patent US8575210B2, in case you need it.

Target: hNurr1_RXRγFL (NURR-1/RXRγ heterodimer) (Homo sapiens, UniProt P48443)
Construct: EC50 hNurr1_RXRγFL; other: Cos-7 cells, Gal4 luciferase reporter; other: level of induction relative to XCT0135908 at; hNurr1_RXRγFL
Sequence (P48443 whole entry, the tested form may be a part): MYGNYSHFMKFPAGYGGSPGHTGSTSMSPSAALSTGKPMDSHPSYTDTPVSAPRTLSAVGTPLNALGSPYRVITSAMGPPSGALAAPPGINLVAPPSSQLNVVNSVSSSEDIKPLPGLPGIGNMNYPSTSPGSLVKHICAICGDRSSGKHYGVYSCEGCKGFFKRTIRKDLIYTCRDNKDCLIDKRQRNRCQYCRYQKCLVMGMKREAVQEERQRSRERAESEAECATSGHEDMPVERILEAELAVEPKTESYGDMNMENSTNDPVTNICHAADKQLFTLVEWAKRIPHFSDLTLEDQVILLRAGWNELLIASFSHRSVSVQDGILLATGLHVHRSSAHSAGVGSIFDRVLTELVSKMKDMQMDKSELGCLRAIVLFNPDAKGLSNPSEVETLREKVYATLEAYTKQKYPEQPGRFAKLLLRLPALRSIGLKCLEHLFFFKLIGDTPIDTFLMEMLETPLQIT
Sequence (P43354 328-598 partner): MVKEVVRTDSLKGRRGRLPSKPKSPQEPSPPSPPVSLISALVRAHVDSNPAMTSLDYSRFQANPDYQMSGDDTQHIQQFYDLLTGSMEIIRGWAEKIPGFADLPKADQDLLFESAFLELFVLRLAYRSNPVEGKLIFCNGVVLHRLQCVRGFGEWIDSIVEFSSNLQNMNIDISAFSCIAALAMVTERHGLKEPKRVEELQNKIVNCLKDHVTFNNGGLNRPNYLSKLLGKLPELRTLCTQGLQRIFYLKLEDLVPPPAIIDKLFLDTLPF
Assay: Transactivation assay, NURR-1-Gal4/RXRγ luciferase reporter in Cos-7 cells
Conditions: Cos-7 cells, Gal4 luciferase reporter
Protocol: To start with, using an in vitro assay, the capacity of the compounds according to the invention to behave as an activator of the heterodimers formed by the NURR-1 nuclear receptor and the RXR nuclear receptors was measured. A transactivation assay was used as a primary screening test. […] After 24 hours, the culture medium was changed. […] After incubation overnight, the expression of luciferase was measured after addition of “SteadyGlo” in accordance with the manufacturer's (Promega) instructions. […]
assay-endpoint: EC50

Example entries begin here.
                            chemical_smiles  reported
0  CC(C)(C)c1cccc(S(=O)(=O)n2c(CCCCC(=O)O)cc3cc(C(F)(F)F)ccc32)c1     77 nM
1  CC(C)c1cccc(S(=O)(=O)n2c(CCCC(=O)O)cc3cc(C(F)(F)F)ccc32)c1    113 nM

Exam item: Provide value of EC50 for this record tested with hNurr1_RXRγFL (NURR-1/RXRγ heterodimer) (Homo sapiens, UniProt P48443): `CC(C)(C)c1cccc(S(=O)(=O)n2c(CCCC(=O)O)cc3cc(C(F)(F)F)ccc32)c1`
Marked response: 20 nM
